Test system: ATP;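 also: ATP exposure 15 min at 22 °C before imaging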
Assay: switch fluorescence ratio, 500 uM ATP over buffer (Cy3 cluster intensity, sum of 5 cycles each) (fold (ratio)); higher = stronger signal-on switching upon ATP binding; sequences stand for … in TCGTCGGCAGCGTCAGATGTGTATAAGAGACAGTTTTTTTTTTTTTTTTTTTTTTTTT…TC
Conditions: aptamer strand: ATP DNA aptamer (quencher-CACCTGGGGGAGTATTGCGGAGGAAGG + anchor), 100 nM annealed; ATP concentration: 500 uM
Measured switch fluorescence ratio, listed per entry for reference.

The following sequences have reported results that may help.
TAGAAAGGCC :: 1.03
AAGGTTCGGG :: 0.994
AAGGGGATTA :: 0.99

Ask: Which switch fluorescence ratio is listed for `GCGGGATTGG` ?
Reply: 1

Ask: Another sequence to check: `AAAATCTTGT`
Reply: 1.04

Ask: Lookup `TTTTTACTAG`
Reply: 1.01

* * *

System: ATP;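 also: ATP exposure 15 min at 22 °C before imaging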
Assay: switch fluorescence ratio, 500 uM ATP over buffer (Cy3 cluster intensity, sum of 5 cycles each) (fold (ratio)); higher = stronger signal-on switching upon ATP binding; sequences stand for … in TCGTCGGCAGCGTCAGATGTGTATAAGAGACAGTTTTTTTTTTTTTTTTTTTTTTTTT…TC
Conditions: aptamer strand: ATP DNA aptamer (quencher-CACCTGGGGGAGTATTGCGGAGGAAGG + anchor), 100 nM annealed; ATP concentration: 500 uM
VALUE TYPE: switch fluorescence ratio
Just the number, please, no unit attached.

TTCCAAATCC :: 1.01

Here is the next item to consider.
Ask: Param item = `CTTGGAGGA` ; retrieve measured switch fluorescence ratio.
Reply: 1.02

* * *

System: ATP;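 also: ATP exposure 15 min at 22 °C before imaging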
Assay: switch fluorescence ratio, 500 uM ATP over buffer (Cy3 cluster intensity, sum of 5 cycles each) (fold (ratio)); higher = stronger signal-on switching upon ATP binding; sequences stand for … in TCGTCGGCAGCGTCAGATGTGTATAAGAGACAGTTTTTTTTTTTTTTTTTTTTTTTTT…TC
Details: aptamer strand: ATP DNA aptamer (quencher-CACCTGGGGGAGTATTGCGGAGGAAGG + anchor), 100 nM annealed; ATP concentration: 500 uM
VALUE TYPE: switch fluorescence ratio
Returns: the value as a bare number; no unit string appended.

GGTATGGAGG :: 0.988
ACGTTGTTTT :: 0.984
TTAGCAGGGA :: 1

Ask: Entry `CATGTATGTT` : reported switch fluorescence ratio = ?
Reply: 1.01

Ask: Note, next up: `TTTGAA`
Reply: 0.956

Ask: Same read-out for `GGGTGTAGTT` ?
Reply: 0.999

Ask: Entry to check: `ATAGGAATTT`
Reply: 0.993

Ask: Entry to check: `GATTTTTGAG`
Reply: 0.99

Ask: Here is the next sequence: `GTGATCTGGG`
Reply: 0.969

Ask: Subsequent entry: `ATAGGGAAGT`
Reply: 1

* * *

Test system: ATP;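 also: ATP exposure 15 min at 22 °C before imaging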
Assay: switch fluorescence ratio, 500 uM ATP over buffer (Cy3 cluster intensity, sum of 5 cycles each) (fold (ratio)); higher = stronger signal-on switching upon ATP binding; sequences stand for … in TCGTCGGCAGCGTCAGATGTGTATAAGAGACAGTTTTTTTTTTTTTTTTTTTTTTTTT…TC
Details: aptamer strand: ATP DNA aptamer (quencher-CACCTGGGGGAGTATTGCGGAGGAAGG + anchor), 100 nM annealed; ATP concentration: 500 uM
The reader will find reported switch fluorescence ratio values listed item by item below.
// keep it numeric: no unit symbol after the value

Study these solved cases before continuing.
AATGAAAATG :: 0.98
TGGACTCGGA :: 1.03

Ask: Item: `GGAAGAAAAC` Test system: ATP Read-out: switch fluorescence ratio Value: ?;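 also: ATP exposure 15 min at 22 °C before imaging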
Reply: 1.01

Ask: Entry to check: `TTGAGTCGGA`
Reply: 1.42

Ask: Try this sequence next: `ACACGTTCTT`
Reply: 0.996

Ask: Also, `TTTGGCCCCT` please.
Reply: 1

Ask: Try `TCCAGGGGGC` next.
Reply: 1.18

Ask: Check `ATTGGCACT` too.
Reply: 1.03

Ask: Also, `TGATGCTTTG` please.
Reply: 0.998

Ask: Item: `AATCCATGCG`
Reply: 1

Ask: How about this sequence: `GGGGAGAGAC`
Reply: 1.04

Ask: Lookup `TTCCTGGTCA`
Reply: 0.997

* * *

Test system: ATP;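 also: ATP exposure 15 min at 22 °C before imaging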
Experiment: switch fluorescence ratio, 500 uM ATP over buffer (Cy3 cluster intensity, sum of 5 cycles each) (fold (ratio)); higher = stronger signal-on switching upon ATP binding; sequences stand for … in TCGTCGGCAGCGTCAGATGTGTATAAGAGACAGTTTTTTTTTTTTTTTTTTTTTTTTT…TC
Conditions: aptamer strand: ATP DNA aptamer (quencher-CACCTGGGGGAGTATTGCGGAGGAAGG + anchor), 100 nM annealed; ATP concentration: 500 uM
# cutoff 1 applies to switch fluorescence ratio; >= gives True, < gives False

Ask: Item `TGATTTGTAT` with switch fluorescence ratio of 1 or above?
Reply: False

Ask: And what about the sequence `TCATCCGGAT` ?
Reply: True

* * *

Test system: ATP;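 also: ATP exposure 15 min at 22 °C before imaging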
Assay: switch fluorescence ratio, 500 uM ATP over buffer (Cy3 cluster intensity, sum of 5 cycles each) (fold (ratio)); higher = stronger signal-on switching upon ATP binding; sequences stand for … in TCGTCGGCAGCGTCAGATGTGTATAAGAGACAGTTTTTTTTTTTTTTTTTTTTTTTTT…TC
Settings: aptamer strand: ATP DNA aptamer (quencher-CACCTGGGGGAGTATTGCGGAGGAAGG + anchor), 100 nM annealed; ATP concentration: 500 uM
We use 1 as the dividing line for switch fluorescence ratio: on or above the line is 1, below is 0.

Solved entries (count: 5):
CAATTCAGAT :: 0
GCCGAACCTC :: 1
GTGTGTTCGC :: 0
TCCGTGAGAT :: 1
CCGCCTTGTT :: 1

Ask: Hello, I need to know if `TAAATGGACG` has measured switch fluorescence ratio not below 1. Thanks!
Reply: 0

Ask: Same question, `AGAGCACAGG` this time
Reply: 1

Ask: Subsequent entry: `CAGGAAAACG`
Reply: 1

Ask: Can you check `TTGTGATAGC` next?
Reply: 1

Ask: Same for `TCTTTTGGGA`
Reply: 1

Ask: Lookup `TTTTTCAAAA`
Reply: 1

Ask: Now try `AGTCATGAAA` .
Reply: 1

Ask: Query `TACTGAGCAT` next
Reply: 1

Ask: Another sequence to look at: `ACCAATTTTT`
Reply: 1

Ask: Now the sequence `TGGGACATTT`
Reply: 1

Ask: Next: `TATAGGGGAT`
Reply: 1

Ask: Same question for `TTTACTGGTG` please.
Reply: 1

Ask: What do you get for `AGAATCGGCG` ?
Reply: 1

Ask: Ok, now `CTTTGGAACT`
Reply: 1

Ask: Then this sequence: `TTGTTAATAG`
Reply: 1

* * *

Test system: ATP;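 also: ATP exposure 15 min at 22 °C before imaging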
Test: switch fluorescence ratio, 500 uM ATP over buffer (Cy3 cluster intensity, sum of 5 cycles each) (fold (ratio)); higher = stronger signal-on switching upon ATP binding; sequences stand for … in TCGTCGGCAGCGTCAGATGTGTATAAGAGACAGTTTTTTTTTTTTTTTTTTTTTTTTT…TC
Conditions: aptamer strand: ATP DNA aptamer (quencher-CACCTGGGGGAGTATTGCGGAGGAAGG + anchor), 100 nM annealed; ATP concentration: 500 uM
VALUE TYPE: switch fluorescence ratio
Kindly provide the number alone.

Recorded switch fluorescence ratio, per entry:
AATCGCTCTT :: 1.01
GGAGCAGGGA :: 0.963
GCATTAGGGG :: 1.01
TACAGTTGCG :: 1.02
ATCGCCGGGG :: 1.02

Ask: For the sequence shown here, `CGCACCCTTT` , give the reported switch fluorescence ratio.
Reply: 1.09

Ask: # repeat for `ACACAAATGA`
Reply: 1.01

Ask: Try this sequence next: `GCTTGTTTGG`
Reply: 0.961

Ask: Please answer likewise for `TGACGGGAGG`
Reply: 0.991

Ask: Also check `TGTGAATGGT`
Reply: 0.985

Ask: Then what about the sequence `TGAGGATGTT` ?
Reply: 0.985

Ask: What do we get for `GCTCGGGTTG` ?
Reply: 0.984

Ask: Another sequence to check: `CGCCACTGTG`
Reply: 1.06

Ask: Record: `TTAAATGAAA`
Reply: 1.02

Ask: Then `GGCCGTGAGG` ?
Reply: 1.01

Ask: Follow-up item: `CTCGGCTTGT`
Reply: 1.05

Ask: Param item: `GGGGCAATTT`
Reply: 1.04

Ask: Now the sequence `TGGGGACAAT`
Reply: 0.987

* * *

System: ATP;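 also: ATP exposure 15 min at 22 °C before imaging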
Assay: switch fluorescence ratio, 500 uM ATP over buffer (Cy3 cluster intensity, sum of 5 cycles each) (fold (ratio)); higher = stronger signal-on switching upon ATP binding; sequences stand for … in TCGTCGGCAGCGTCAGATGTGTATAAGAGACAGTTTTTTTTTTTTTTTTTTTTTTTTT…TC
Conditions: aptamer strand: ATP DNA aptamer (quencher-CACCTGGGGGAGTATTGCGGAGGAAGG + anchor), 100 nM annealed; ATP concentration: 500 uM
In this section, each of the sequences is paired with its reported switch fluorescence ratio.
Returns: the value as a bare number; no unit string appended.

GTTGACTTGA :: 1.02
CGGTGCCAAG :: 0.988
AATGGGGAAG :: 0.985
ATAGTTAGGT :: 1.03
ACTTGGGGCC :: 0.971

Ask: switch fluorescence ratio lookup needed for `TTCACCCGGT` , thanks.
Reply: 1.11

Ask: Check `TTTTACGGGA` too.
Reply: 1.26

Ask: What would you report for `GAAATAAAAT` ?
Reply: 1

Ask: Try this sequence next: `GCGCGGAGGA`
Reply: 1.03

Ask: Next sequence: `GACCCTTACC`
Reply: 1.38
